- SYSTEM NAME: T1, Human soluble IL6-R (human, UniProt P08887 20-358)
- T1 construct: Bought soluble receptor; biotinylated in some Alphascreen assays; also called sIL6-R; hIL-6R
- T1 sequence (looked up): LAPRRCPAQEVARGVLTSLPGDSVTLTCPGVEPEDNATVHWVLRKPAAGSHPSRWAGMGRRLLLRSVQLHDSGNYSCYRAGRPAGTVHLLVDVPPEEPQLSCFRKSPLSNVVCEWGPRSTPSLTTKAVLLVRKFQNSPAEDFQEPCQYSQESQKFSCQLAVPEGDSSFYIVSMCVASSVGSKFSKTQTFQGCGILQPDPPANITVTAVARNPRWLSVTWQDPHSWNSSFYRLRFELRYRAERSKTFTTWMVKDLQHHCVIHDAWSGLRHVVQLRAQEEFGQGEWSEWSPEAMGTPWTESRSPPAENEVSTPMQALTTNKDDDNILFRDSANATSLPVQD
- ASSAY REMARKS: SPR (Biacore), off-rate
MEASUREMENT NAME: koff (s⁻¹)

Consider the following illustrative entries.
PMP 33 A2 (VHH, also called PMP33A2(t)) VHH: EVQLVESGGGLVQPGGSLRLSCAASGFSLDYYAIGWFRQAPGKEREGVSCMDSSGGTTSTYYSDSVKGRFTISRDDAKNTVYLQMNSLKPEDTAVYYCAADGHLNWGQRYVPCSQISWRGWNDYWGQGTQVTVSS	0.0005
PMP 30 A10 (VHH, also called PMP30A10(t)) VHH: EVQLVESGGGLVQPGGSLRLSCAASGFTFDDYGMSWVRQAPGKGLEWVSAISWNGGSTYYTESMKGRFTISRDNAKNTVYLQMNSLKPEDTAVYYCVKGSTAIVGVPPTYPDEYDYWGQGTQVTVSS	0.00268
PMP 31 C8 (VHH, also called PMP31C8(t)) VHH: EVQLVESGGGLVQPGGSLRLSCAASGFTFGSYDMSWVRQAPGKGPEWVSAINSGGGSTYYADSVKGRFTISRDNAKNTLYLQMNSLKPEDTAVYYCATDWRYSDYDLPLPPPGDYWGQGTQVTVSS	0.00125
PMP 33 G3 (VHH, also called PMP33G3(t)) VHH: EVQLVESGGGLVQPGGSLRLSCAASGFTLGYFAIGWFRQAPGKEREGVSCISSSDGSAYYADSVKGRFTVSRDNAKNTVYLQMNSLKPEDTAVYYCATDRSVYYCSGGAPEEYYWGQGTQVTVSS	0.00119
PMP 34 E10 (VHH) VHH: EVQLVESGGGLVQAGGSLRLSCAASGRTFSSYAMGWGRQAPGKEREFVATISWSGGSTYYADSVKGRFTISRDNAKNTVYLQMNSLKPEDTAVYYCAADLAEFKYSDYADYWGQGTQVTVSS	0.002
PMP 28 F7 (VHH, also called PMP28F7(t)) VHH: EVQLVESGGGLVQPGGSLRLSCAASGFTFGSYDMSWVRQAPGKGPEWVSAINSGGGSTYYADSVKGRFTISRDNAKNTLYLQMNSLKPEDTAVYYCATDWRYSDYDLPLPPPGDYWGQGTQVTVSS	0.00126

P = PMP 31 F4 (VHH, also called PMP31F4(t)) VHH: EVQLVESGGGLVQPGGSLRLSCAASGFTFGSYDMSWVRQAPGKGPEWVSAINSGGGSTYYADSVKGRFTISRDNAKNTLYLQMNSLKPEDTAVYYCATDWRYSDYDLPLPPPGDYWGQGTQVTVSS
Q = IL6R13 (VHH, also called PMP35H4; PMP 35 H4) VHH: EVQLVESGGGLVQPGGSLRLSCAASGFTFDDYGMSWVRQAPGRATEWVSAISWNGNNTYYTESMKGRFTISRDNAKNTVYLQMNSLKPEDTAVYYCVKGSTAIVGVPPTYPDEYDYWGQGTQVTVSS
Query :: Which gives the smaller koff number: P or Q ? // respond with label for picked entry
Result :: Q
